# system: CD28 (Homo sapiens, UniProt P10747)
# test description: Flow binding to Jurkat/IL2 reporter cells (CD28)
# Set-up: host or cells: Jurkat cells expressing an IL-2-luciferase reporter
# assay conditions: Table E11; 33.3 nM; listed as WT CD80 ECD-Fc = 1.0
# Description: Binding of selected immunomodulatory fusion proteins to cognate binding partners was assessed. […] Cells were sorted in a Bio-Rad S3 Cell Sorter (Bio-Rad Corp., USA) to >98% purity. […] For staining and analysis by flow cytometry, 100,000 cells of appropriate transfected cells were plated in 96-well round bottom plates. […] Cells were then washed twice with 150 μL/well stain buffer, fixed in 2% formaldehyde/PBS, and analyzed on Intellicyt flow cytometer (Intellicyt Corp., USA). […]
measured parameter: CD28 Fold change to WT CD80
Give bare numbers.

Looking up T13R/Q33R/E35D/M38I/M47L/V68M/L85M (protein, UniProt P33681 35-288, looked up, variant T13R Q33R E35D M38I M47L V68M L85M) T-lymphocyte activation …: VIHVTKEVKEVARLSCGHNVSVEELAQTRIYWRKDKKIVLTMMSGDLNIWPEYKNRTIFDITNNLSIMILALRPSDEGTYECVVMKYEKDAFKREHLAEVTLSVKADFPTPSISDFEIPTSNIRRIICSTSGGFPEPHLSWLENGEELNAINTTVSQDPETELYAVSSKLDFNMTTNHSFMCLIKYGHLRVNQTFNWNTTKQEHFPDNLLPSWAITLISVNGIFVICCLTYCFAPRCRERRRNERLRRESVRPV , I found its CD28 Fold change to WT CD80 recorded as 0.5

Others:
Looking up T13R/Q33R/E35D/M47L/V68M (protein, CD80 v381 ECD) VIHVTKEVKEVARLSCGHNVSVEELAQTRIYWRKDKKMVLTMMSGDLNIWPEYKNRTIFDITNNLSIMILALRPSDEGTYECVVLKYEKDAFKREHLAEVTLSVKADFPTPSISDFETPTSNIRRIICSTSGGFPEPHLSWLENGEELNAINTTVSQDPETELYAVSSKLDFNMTTNHSFMCLIKYGHLRVNQTFNWNTTKQEHFPDN , I found its CD28 Fold change to WT CD80 recorded as 0.4
